# FRatio per entry
- system_tested: GST-Bfl-1 (Homo sapiens, UniProt Q16548)
- Construct: lacking their C-terminal transmembrane domains (about the last 20 amino acids) (“ΔTM”); made in house; host or cells: XL-1 Blue E. coli, pGEX 4T-1
- Sequence (Q16548 1-155 limits assumed): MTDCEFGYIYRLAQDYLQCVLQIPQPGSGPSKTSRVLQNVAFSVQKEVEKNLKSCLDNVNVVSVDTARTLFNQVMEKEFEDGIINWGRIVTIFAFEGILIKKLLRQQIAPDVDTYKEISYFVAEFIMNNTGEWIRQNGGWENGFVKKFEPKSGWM
- assay_overview: Bfl-1/FITC-Bid BH3 competitive fluorescence polarization assay
- Assay type: binding
- cond: primary HTS hits, MLSCN library (PubChem SIDs), Table 5B

[
  {
    "molecule": "Cc1cnnn1-c1ccc(C(=O)CCl)cc1",
    "FRatio": 0.82
  },
  {
    "molecule": "Cn1c(=O)n(C)c2cc(S(=O)(=O)Nc3ccccc3O)ccc21",
    "FRatio": 0.98
  },
  {
    "molecule": "CCN(CC)CCc1c(C)[nH]c(C(=O)OCc2ccccc2)c1C",
    "FRatio": 1
  },
  {
    "molecule": "COC(=O)c1[nH]c2ccc(C)cc2c1NC(=O)CCN1CCN(Cc2ccc3c(c2)OCO3)CC1",
    "FRatio": 0.81
  }
]

Values compiled from patent US20090118135A1.
